Measurement target: T1, dimeric hActRIIB (human, UniProt Q13705 19-134)
T1 construct: also called ActRIIB DIMER; ActRIIB dimer
T1 sequence (Q13705 19-134): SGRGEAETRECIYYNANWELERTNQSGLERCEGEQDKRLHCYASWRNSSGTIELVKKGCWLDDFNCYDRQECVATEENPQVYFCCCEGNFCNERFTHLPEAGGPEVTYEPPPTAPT
Test name: SPR (Biacore), 37 C, antibody captured on anti-hFc IgG chip, dimeric ActRIIB injected, 1:1 model
Result type: koff
Include the unit after the number when you answer.

INSERT INTO results (binder, recorded_result) VALUES
  ('L01 (antibody, human IgG1, kappa, V domains shown, Naive human IgG; also called L01 antibody; mAB L01) VH: QLQLQESGPGLVKPSETLSLTCTVSGGSISSSSYYWGWIRQPPGKGLEWIGSISYSGSTYYNPSLKSRVTISVDTSKNQFSLKLSSVTAADTAVYYCARDSLRYGMDVWGQGTTVTVSS VL: EIVMTQSPATLSVSPGERATLSCRASQSVSSNLAWYQQKPGQAPRLLIYGASTRATGIPARFSGSGSGTEFTLTISSLQSEDFAVYYCQVYNVWPRTFGGGTKVEIKR', '0.000365 s⁻¹'),
  ('N01 (antibody, human IgG1, kappa, V domains shown, also called N01 antibody; mAB N01) VH: QLQLQESGPGLVKPSETLSLTCTVSGGSISSSSYYWGWIRQPPGKGLEWIGSISYSGSTYYNPSLKSRVTISVDTSKNQFSLKLSSVTAADTAVYYCARDSLRYGMDVWGQGTTVTVSS VL: DIQMTQSPSTLSASVGDRVTITCRASQSIGSWLAWYQQKPGKAPKLLIYKASSLESGVPSRFSGSGSGTEFTLTISSLQPDDFATYYCQVYGSYSPRTFGGGTKVEIKR', '0.000335 s⁻¹'),
  ('J01 (antibody, V domains shown, also called J01 antibody; mAB J01) VH: QVQLVQSGAEVKKPGASVKVSCKASGYTFTSYRMHWVRQAPGQGLEWMGFIVPSGGSTSYAQKFQGRVTMTRDTSTSTVYMELSSLRSEDTAVYYCARVSRYAPEPMDVWGQGTTVTVSS VL: DIQMTQSPSSVSASVGDRVTITCRASQGISRWLAWYQQKPGKAPKLLIYAASSLQSGVPSRFSGSGSGTDFTLTISSLQPEDFATYYCQQAFSHPWTFGGGTKVEIK', '1.69e-05 s⁻¹');

Next item in the queue.
Entry under review: P01 (antibody, V domains shown, Naive human IgG; also called P01 antibody; mAB P01) VH: EVQLLESGGGLVQPGGSLRLSCAASGFTFSSYAMSWVRQAPGKGLEWVSAISGSGGSTSYADSVKGRFTISRDNSKNTLYLQMNSLRAEDTAVYYCARLPQYSRPFDYWGQGTLVTVSS VL: DIQMTQSPSSVSASVGDRVTITCRASQGISSWLAWYQQKPGKAPKLLIYAASSLQSGVPSRFSGSGSGTDFTLTISSLQPEDFATYYCQQGHSFPLTFGGGTKVEIK . Reported koff?
0.0145 s⁻¹
